# test system: GluK2 (Homo sapiens)
# assay details: Glutamate-stimulated Ca2+-influx fluorescence assay in HEK293 cells, GluK2
# Type: cell-based
# condition description: normalized response at 100 µM compound
# Procedure: HEK293 cell lines stably expressing homomeric glutamate receptors (GluA1, GluK1 and GluK2) were obtained from Eli Lilly and grown in DMEM (ThermoFisher) supplemented with 10% v/v fetal bovine serum (Sigma), 2 mM Glutamax™ (Gibco), 100 U/mL penicillin, 100 µg streptomycin and 250 ng amphotericin B (Sigma) in 5% CO2 at 37 °C. […] Calcium influx fluorescence assay […] response is measured as the peak change in fluorescence upon addition of agonist. […] Readings of antagonists used the […]
observation type: Mean Response (%)

>>> val("O=C(O)CCc1ccc2c(ccc3cc(C(=O)N4CCN[C@@H](C(=O)O)[C@H]4C(=O)O)ccc32)c1 (relative stereo) [UBP791]")
97.8
>>> val("CC(Cc1ccc2c(ccc3cc(C(=O)N4CCN[C@H](C(=O)O)[C@@H]4C(=O)O)ccc32)c1)C(=O)O (stereo partly shown) [UBP1701]")
96.1
>>> val("O=C(O)C=Cc1ccc2c(ccc3cc(C(=O)N4CCN[C@@H](C(=O)O)[C@H]4C(=O)O)ccc32)c1 (relative stereo) [UBP1700]")
90.4
>>> val("O=C(O)CCCCc1ccc2c(ccc3cc(C(=O)N4CCNC(C(=O)O)C4C(=O)O)ccc32)c1 (stereo not shown) [UBP1702]")
96.0

###

Mean Response reference
# test system: GluA1 (Homo sapiens)
# assay details: Glutamate-stimulated Ca2+-influx fluorescence assay in HEK293 cells, GluA1
# Type: cell-based
# condition description: normalized response at 30 µM compound
observation type: Mean Response (%)

>>> val("CC(Cc1ccc2c(ccc3cc(C(=O)N4CCN[C@H](C(=O)O)[C@@H]4C(=O)O)ccc32)c1)C(=O)O (stereo partly shown)")
92.5
>>> val("O=C(O)CCc1ccc2c(ccc3cc(C(=O)N4CCN[C@@H](C(=O)O)[C@H]4C(=O)O)ccc32)c1 (relative stereo)")
94.1
>>> val("O=C(O)C=Cc1ccc2c(ccc3cc(C(=O)N4CCN[C@@H](C(=O)O)[C@H]4C(=O)O)ccc32)c1 (relative stereo)")
105.1
>>> val("O=C(O)CCCCc1ccc2c(ccc3cc(C(=O)N4CCNC(C(=O)O)C4C(=O)O)ccc32)c1 (stereo not shown)")
86.5

###

# test system: GluK2 (Homo sapiens, UniProt Q13002)
# Sequence (Q13002 32-908): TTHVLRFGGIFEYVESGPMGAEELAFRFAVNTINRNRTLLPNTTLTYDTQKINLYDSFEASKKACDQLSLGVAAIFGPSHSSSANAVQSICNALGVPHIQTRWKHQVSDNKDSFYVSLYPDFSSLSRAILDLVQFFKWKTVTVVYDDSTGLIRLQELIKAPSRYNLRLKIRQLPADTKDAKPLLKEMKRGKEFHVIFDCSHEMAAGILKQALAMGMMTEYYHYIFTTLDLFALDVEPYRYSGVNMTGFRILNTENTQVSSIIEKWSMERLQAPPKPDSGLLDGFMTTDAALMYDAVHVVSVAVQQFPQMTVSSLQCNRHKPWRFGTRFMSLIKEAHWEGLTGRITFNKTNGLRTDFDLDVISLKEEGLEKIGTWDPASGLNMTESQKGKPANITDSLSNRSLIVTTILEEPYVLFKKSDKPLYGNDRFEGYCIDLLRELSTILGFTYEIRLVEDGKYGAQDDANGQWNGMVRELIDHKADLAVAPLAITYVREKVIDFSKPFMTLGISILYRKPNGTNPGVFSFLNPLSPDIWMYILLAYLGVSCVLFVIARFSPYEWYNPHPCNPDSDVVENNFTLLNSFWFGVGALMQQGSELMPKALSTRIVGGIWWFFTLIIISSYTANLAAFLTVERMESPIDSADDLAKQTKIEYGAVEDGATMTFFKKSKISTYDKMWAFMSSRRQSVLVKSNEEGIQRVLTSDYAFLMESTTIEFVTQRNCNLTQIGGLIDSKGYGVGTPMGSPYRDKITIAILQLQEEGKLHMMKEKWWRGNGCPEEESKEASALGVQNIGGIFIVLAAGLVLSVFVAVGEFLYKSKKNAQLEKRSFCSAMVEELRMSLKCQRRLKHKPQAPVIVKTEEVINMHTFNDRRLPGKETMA
# assay details: Glutamate-stimulated Ca2+-influx fluorescence assay in HEK293 cells, GluK2
# Format: cell-based
# condition description: normalized response at 30 µM compound
observation type: Mean Response (%)

>>> val("O=C(O)CCc1ccc2c(ccc3cc(C(=O)N4CCN[C@@H](C(=O)O)[C@H]4C(=O)O)ccc32)c1 (relative stereo)")
96.1
>>> val("O=C(O)CCCCc1ccc2c(ccc3cc(C(=O)N4CCNC(C(=O)O)C4C(=O)O)ccc32)c1 (stereo not shown)")
94.5
>>> val("CC(Cc1ccc2c(ccc3cc(C(=O)N4CCN[C@H](C(=O)O)[C@@H]4C(=O)O)ccc32)c1)C(=O)O (stereo partly shown)")
96.9
>>> val("O=C(O)C=Cc1ccc2c(ccc3cc(C(=O)N4CCN[C@@H](C(=O)O)[C@H]4C(=O)O)ccc32)c1 (relative stereo)")
76.5

###

# test system: GluN1-4a/GluN2D Lys766Arg NMDARs (Rattus norvegicus, UniProt P35439+Q62645, K766R)
# assay details: TEVC electrophysiology on oocytes expressing GluN1-4a/GluN2D Lys766Arg
observation type: EC50 (µM)

>>> val("N[C@@H](CCC(=O)O)C(=O)O [L-glutamate, reference compound]")
0.13

###

# test system: GluN1-4a/GluN2D NMDARs (Rattus norvegicus, UniProt P35439+Q62645)
# Sequence (Q62645 28-1323, other chains not shown): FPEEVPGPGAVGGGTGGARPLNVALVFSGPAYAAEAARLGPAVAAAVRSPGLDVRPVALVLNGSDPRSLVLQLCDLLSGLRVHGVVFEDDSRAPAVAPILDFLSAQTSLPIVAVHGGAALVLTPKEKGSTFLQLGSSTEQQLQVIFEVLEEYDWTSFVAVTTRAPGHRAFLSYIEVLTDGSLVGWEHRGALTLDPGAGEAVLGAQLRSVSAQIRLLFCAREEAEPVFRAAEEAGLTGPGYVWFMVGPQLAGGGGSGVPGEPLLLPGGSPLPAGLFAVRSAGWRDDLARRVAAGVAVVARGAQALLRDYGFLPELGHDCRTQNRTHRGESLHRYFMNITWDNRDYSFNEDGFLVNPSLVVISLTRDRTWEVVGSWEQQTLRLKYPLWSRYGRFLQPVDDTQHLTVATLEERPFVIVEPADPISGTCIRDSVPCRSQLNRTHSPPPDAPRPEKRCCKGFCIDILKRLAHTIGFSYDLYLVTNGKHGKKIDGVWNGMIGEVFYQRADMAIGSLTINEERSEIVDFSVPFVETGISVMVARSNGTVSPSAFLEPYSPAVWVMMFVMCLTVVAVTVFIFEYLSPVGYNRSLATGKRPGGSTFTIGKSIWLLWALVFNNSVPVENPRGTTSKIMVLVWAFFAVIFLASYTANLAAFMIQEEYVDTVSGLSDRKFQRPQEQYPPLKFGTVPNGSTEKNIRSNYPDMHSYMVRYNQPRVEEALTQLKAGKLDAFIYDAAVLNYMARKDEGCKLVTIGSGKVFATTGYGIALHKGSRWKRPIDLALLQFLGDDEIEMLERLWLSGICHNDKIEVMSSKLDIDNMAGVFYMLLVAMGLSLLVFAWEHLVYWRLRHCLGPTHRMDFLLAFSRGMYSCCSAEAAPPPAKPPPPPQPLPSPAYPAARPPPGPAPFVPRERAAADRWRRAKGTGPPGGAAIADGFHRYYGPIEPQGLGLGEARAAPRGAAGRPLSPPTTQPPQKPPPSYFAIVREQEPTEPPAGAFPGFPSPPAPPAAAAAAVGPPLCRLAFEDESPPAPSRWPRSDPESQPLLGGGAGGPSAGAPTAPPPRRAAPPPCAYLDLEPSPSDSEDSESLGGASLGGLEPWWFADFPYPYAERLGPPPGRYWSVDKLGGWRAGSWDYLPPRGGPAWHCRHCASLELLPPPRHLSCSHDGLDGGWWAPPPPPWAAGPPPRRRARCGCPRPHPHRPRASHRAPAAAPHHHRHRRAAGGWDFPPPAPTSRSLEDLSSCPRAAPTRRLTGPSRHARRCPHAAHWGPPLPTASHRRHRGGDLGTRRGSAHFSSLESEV
# assay details: TEVC electrophysiology on Xenopus laevis oocytes expressing GluN1-4a/GluN2D
observation type: IC50 (nM)

>>> val("O=C(O)CCc1ccc2c(ccc3cc(C(=O)N4CCN[C@@H](C(=O)O)[C@H]4C(=O)O)ccc32)c1 (relative stereo)")
560

###

# test system: GluN1-4a/GluN2A NMDARs (Rattus norvegicus, UniProt Q00959)
# Construct: expressed in transfected cells; host or cells: Xenopus laevis oocytes injected with cRNA
# assay details: TEVC electrophysiology on Xenopus laevis oocytes expressing GluN1-4a/GluN2A
# Assay type: cell-based
# condition description: Ki GluN2A relative to Ki GluN2D (WT)
observation type: fold difference of Ki vs. 2D (GluN2A)

>>> val("CC(Cc1ccc2c(ccc3cc(C(=O)N4CCN[C@H](C(=O)O)[C@@H]4C(=O)O)ccc32)c1)C(=O)O (stereo partly shown)")
"~ 45 fold"
>>> val("O=C(O)CCc1ccc2c(ccc3cc(C(=O)N4CCN[C@@H](C(=O)O)[C@H]4C(=O)O)ccc32)c1 (relative stereo)")
"~ 47 fold"
>>> val("O=C(O)C=Cc1ccc2c(ccc3cc(C(=O)N4CCN[C@@H](C(=O)O)[C@H]4C(=O)O)ccc32)c1 (relative stereo)")
"~ 64 fold"
>>> val("O=C(O)CCCCc1ccc2c(ccc3cc(C(=O)N4CCNC(C(=O)O)C4C(=O)O)ccc32)c1 (stereo not shown)")
"~ 52 fold"

###

# test system: GluN1-4a/GluN2D Met763Lys/Lys766Arg NMDARs (Rattus norvegicus, UniProt P35439+Q62645, K766R/M763K)
# assay details: TEVC electrophysiology on oocytes expressing GluN1-4a/GluN2D Met763Lys/Lys766Arg
pEC50: −log10 of the molar value.
observation type: pEC50

>>> val("N[C@@H](CCC(=O)O)C(=O)O [L-glutamate, reference compound]")
6.77

###

# test system: GluN1-4a/GluN2D Met763Lys/Lys766Arg NMDARs (Rattus norvegicus, UniProt P35439+Q62645, K766R/M763K)
# assay details: TEVC electrophysiology on oocytes expressing GluN1-4a/GluN2D Met763Lys/Lys766Arg
observation type: IC50 (µM)

>>> val("O=C(O)CCc1ccc2c(ccc3cc(C(=O)N4CCN[C@@H](C(=O)O)[C@H]4C(=O)O)ccc32)c1 (relative stereo)")
7.24

###

# test system: GluN1-4a/GluN2B NMDARs (Rattus norvegicus, UniProt P35439+Q00960)
# Sequence (Q00960 27-1482, other chains not shown): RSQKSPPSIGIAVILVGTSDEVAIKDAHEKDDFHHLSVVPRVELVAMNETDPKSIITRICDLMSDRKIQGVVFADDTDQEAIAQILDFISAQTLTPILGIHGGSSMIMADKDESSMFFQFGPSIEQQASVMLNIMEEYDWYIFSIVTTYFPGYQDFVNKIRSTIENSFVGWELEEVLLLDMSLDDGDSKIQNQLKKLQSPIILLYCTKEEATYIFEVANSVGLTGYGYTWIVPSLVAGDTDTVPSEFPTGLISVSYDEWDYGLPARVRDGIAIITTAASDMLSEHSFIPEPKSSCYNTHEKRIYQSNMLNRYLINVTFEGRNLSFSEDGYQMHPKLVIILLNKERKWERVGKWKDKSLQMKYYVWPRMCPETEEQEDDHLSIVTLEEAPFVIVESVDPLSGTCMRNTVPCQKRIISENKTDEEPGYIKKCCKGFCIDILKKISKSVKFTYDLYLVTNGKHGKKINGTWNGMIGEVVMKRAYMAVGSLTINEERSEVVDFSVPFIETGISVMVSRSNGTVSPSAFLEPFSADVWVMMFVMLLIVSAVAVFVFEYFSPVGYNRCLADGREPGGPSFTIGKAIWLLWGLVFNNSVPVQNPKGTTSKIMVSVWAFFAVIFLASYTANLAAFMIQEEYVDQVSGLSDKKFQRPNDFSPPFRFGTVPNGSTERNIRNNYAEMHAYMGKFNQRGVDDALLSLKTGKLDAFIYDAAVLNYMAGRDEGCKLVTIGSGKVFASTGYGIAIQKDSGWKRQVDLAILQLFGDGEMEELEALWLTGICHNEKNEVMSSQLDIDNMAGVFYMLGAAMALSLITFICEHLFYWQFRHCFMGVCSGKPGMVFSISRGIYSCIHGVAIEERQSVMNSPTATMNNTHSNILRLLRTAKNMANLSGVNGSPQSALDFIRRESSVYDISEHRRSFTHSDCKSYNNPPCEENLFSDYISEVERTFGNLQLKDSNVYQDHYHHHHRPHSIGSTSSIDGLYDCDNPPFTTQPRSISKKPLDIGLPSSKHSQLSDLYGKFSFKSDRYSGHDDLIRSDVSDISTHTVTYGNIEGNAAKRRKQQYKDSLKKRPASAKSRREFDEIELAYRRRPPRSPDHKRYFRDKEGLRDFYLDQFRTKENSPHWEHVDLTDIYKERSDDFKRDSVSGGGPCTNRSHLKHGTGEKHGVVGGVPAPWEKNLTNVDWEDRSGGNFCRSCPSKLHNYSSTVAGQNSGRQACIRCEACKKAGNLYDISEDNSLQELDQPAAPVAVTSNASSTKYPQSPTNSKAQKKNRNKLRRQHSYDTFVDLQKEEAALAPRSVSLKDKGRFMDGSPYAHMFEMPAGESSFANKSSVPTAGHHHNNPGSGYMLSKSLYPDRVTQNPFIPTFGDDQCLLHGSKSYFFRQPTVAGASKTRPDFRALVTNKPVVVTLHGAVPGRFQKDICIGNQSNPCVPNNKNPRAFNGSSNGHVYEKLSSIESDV
# assay details: TEVC electrophysiology on Xenopus laevis oocytes expressing GluN1-4a/GluN2B
observation type: Ki (nM)

>>> val("O=C(O)CCc1ccc2c(ccc3cc(C(=O)N4CCN[C@@H](C(=O)O)[C@H]4C(=O)O)ccc32)c1 (relative stereo)")
1380
>>> val("O=C(O)C=Cc1ccc2c(ccc3cc(C(=O)N4CCN[C@@H](C(=O)O)[C@H]4C(=O)O)ccc32)c1 (relative stereo)")
350

###

# test system: GluA1 (Homo sapiens, UniProt P42261)
# Sequence (P42261 19-906): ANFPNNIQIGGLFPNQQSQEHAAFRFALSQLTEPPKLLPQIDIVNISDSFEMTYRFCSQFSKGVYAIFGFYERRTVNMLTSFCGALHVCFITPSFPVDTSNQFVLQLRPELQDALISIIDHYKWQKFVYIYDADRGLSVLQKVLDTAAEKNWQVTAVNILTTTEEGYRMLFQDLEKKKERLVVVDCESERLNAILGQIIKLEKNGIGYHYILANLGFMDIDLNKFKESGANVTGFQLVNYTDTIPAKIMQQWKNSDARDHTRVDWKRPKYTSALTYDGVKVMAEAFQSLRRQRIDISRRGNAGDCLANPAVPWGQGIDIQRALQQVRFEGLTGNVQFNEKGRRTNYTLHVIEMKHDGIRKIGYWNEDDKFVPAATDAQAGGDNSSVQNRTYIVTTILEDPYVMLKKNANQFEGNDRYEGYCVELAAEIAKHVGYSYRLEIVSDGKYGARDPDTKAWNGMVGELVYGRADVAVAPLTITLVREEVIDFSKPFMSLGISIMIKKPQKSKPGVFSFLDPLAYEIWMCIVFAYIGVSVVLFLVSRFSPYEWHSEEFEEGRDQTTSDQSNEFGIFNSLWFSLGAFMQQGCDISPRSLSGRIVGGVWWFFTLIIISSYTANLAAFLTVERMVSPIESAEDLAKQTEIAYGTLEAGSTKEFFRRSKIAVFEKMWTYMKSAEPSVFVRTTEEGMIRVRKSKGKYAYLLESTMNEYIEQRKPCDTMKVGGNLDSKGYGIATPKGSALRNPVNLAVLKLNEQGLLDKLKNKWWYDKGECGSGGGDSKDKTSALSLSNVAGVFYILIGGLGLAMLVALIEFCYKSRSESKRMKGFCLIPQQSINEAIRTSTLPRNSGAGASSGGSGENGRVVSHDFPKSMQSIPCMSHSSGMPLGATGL
# assay details: Glutamate-stimulated Ca2+-influx fluorescence assay in HEK293 cells, GluA1
# Assay type: cell-based
# condition description: normalized response at 100 µM compound
# Procedure: HEK293 cell lines stably expressing homomeric glutamate receptors (GluA1, GluK1 and GluK2) were obtained from Eli Lilly and grown in DMEM (ThermoFisher) supplemented with 10% v/v fetal bovine serum (Sigma), 2 mM Glutamax™ (Gibco), 100 U/mL penicillin, 100 µg streptomycin and 250 ng amphotericin B (Sigma) in 5% CO2 at 37 °C. […] Calcium influx fluorescence assay […] response is measured as the peak change in fluorescence upon addition of agonist. […] Readings of antagonists used the […]
observation type: Mean Response (%)

>>> val("CC(Cc1ccc2c(ccc3cc(C(=O)N4CCN[C@H](C(=O)O)[C@@H]4C(=O)O)ccc32)c1)C(=O)O (stereo partly shown)")
91.6
>>> val("O=C(O)CCCCc1ccc2c(ccc3cc(C(=O)N4CCNC(C(=O)O)C4C(=O)O)ccc32)c1 (stereo not shown)")
97.4
>>> val("O=C(O)C=Cc1ccc2c(ccc3cc(C(=O)N4CCN[C@@H](C(=O)O)[C@H]4C(=O)O)ccc32)c1 (relative stereo)")
101.8
>>> val("O=C(O)CCc1ccc2c(ccc3cc(C(=O)N4CCN[C@@H](C(=O)O)[C@H]4C(=O)O)ccc32)c1 (relative stereo)")
86.0

###

# test system: GluN1-4a/GluN2C NMDARs (Rattus norvegicus, UniProt P35439+Q00961)
# Construct: expressed in transfected cells; host or cells: Xenopus laevis oocytes injected with cRNA
# assay details: TEVC electrophysiology on Xenopus laevis oocytes expressing GluN1-4a/GluN2C
# Type: cell-based
# condition description: Ki, Cheng–Prusoff from IC50 and L-glutamate EC50; 100 μM glycine, 1 or 3 μM L-glutamate
observation type: Ki (nM)

>>> val("O=C(O)CCc1ccc2c(ccc3cc(C(=O)N4CCN[C@@H](C(=O)O)[C@H]4C(=O)O)ccc32)c1 (relative stereo) [UBP791]")
80
